Every entry's value here was drawn from patent US4771068A.

- Experimental details: Solubility in water
- Assay type: physicochemical
- Condition notes: aqueous buffer; 0.03M phosphate buffer (pH 7.0), 22° C., 15 minutes
Readout: solubility at 0.25 h (µg/mL)
Number in µg/mL, nothing else.

>  <Compound>
CO[C@@]12[C@H](COC(N)=O)C3=C(C(=O)C(C)=C(NCCSC(C)=O)C3=O)N1C[C@@H]1N[C@@H]12 [Compound 1, 7-N-[(2-acetylthio)ethyl]mitomycin]

>  <Result>
5600

$$$$
>  <Compound>
CO[C@@]12[C@H](COC(N)=O)C3=C(C(=O)C(C)=C(NCCSC(C)=O)C3=O)N1C[C@H]1[C@@H]2N1C (stereo partly drawn)

>  <Result>
3800

$$$$
>  <Compound>
CO[C@@]12[C@H](COC(N)=O)C3=C(C(=O)C(C)=C(NCCSC(C)=S)C3=O)N1C[C@@H]1N[C@@H]12

>  <Result>
260

$$$$
>  <Compound>
CO[C@@]12[C@H](COC(N)=O)C3=C(C(=O)C(C)=C(NCCCCSC(C)=O)C3=O)N1C[C@@H]1N[C@@H]12

>  <Result>
2000

$$$$
>  <Compound>
C=C1C2=C(C(=O)C(C)=C(NCCSC(C)=O)C2=O)N2C[C@H]3[C@H](N3C)[C@]12O (stereo partly drawn)

>  <Result>
1900

$$$$
>  <Compound>
CO[C@@]12[C@H](COC(N)=O)C3=C(C(=O)C(C)=C(NCCCCCCSC(C)=O)C3=O)N1C[C@@H]1N[C@@H]12

>  <Result>
210

$$$$
>  <Compound>
CC(=O)SCCCNC1=C(C)C(=O)C2=C(C1=O)[C@H](COC(N)=O)[C@@]1(O)[C@@H]3[C@H](CN21)N3C (stereo partly drawn)

>  <Result>
9600

$$$$
>  <Compound>
CO[C@@]12[C@H](COC(N)=O)C3=C(C(=O)C(C)=C(NCCCSC(C)=O)C3=O)N1C[C@@H]1N[C@@H]12

>  <Result>
3500

$$$$

# query: solubility at 0.25 h of entry CC(=O)SCCNC1=C(C)C(=O)C2=C(C1=O)[C@H](COC(N)=O)[C@@]1(O)[C@@H]3[C@H](CN21)N3C (stereo partly drawn) 8900

Next compound: CO[C@@]12[C@H](COC(N)=O)C3=C(C(=O)C(C)=C(NCCCCCSC(C)=O)C3=O)N1C[C@@H]1N[C@@H]12 1000

Would you kindly repeat that for CO[C@@]12[C@H](COC(N)=O)C3=C(C(=O)C(C)=C(NCCSC(=O)c4ccc(Br)cc4)C3=O)N1C[C@@H]1N[C@@H]12 ? 4.7

Try the compound CO[C@@]12[C@H](COC(N)=O)C3=C(C(=O)C(C)=C(NCCSC(=O)c4ccccc4)C3=O)N1C[C@@H]1N[C@@H]12 73

###

- Tested on: peripheral leucocytes
- Experimental details: Effect on the peripheral leucocytes number
- Assay type: in vivo, mouse (ddY strain)
- Condition notes: minimum dose reducing peripheral leucocytes number to 4000/mm^3; tumour-carrying ddY mice, intraperitoneal, 4 days after administration
// classify(record): look up WBC4000 in ranges class 1 = under 10 mg/kg, class 2 = from 10 mg/kg up to 20 mg/kg, class 3 = 20 mg/kg and over

Record C=C1C2=C(C(=O)C(C)=C(NCCSC(C)=O)C2=O)N2C[C@H]3[C@H](N3C)[C@]12O (stereo partly shown) [Compound 4] — which class? class 3

###

- Experimental details: Acute toxicity
- Condition notes: mouse, in vivo, ip; ddY mice, intraperitoneally once, 14 days observation
Readout: LD50 at 336 h (mg/kg)
Your answer should be a plain number; it is taken to be in mg/kg.

>  <Compound>
CO[C@@]12[C@H](COC(N)=O)C3=C(C(=O)C(C)=C(NCCSC(C)=S)C3=O)N1C[C@H]1[C@@H]2N1C (stereo partly shown)

>  <Units>
mg/kg

>  <LD50 at 336 h>
13.1

$$$$

Quick one: LD50 at 336 h for COc1ccc(C(=O)SCCNC2=C(C)C(=O)C3=C(C2=O)[C@H](COC(N)=O)[C@@]2(O)[C@@H]4[C@H](CN32)N4C)cc1 (stereo partly shown) ? 27.5

And what about the compound CO[C@@]12[C@H](COC(N)=O)C3=C(C(=O)C(C)=C(NCCSC(C)=O)C3=O)N1C[C@@H]1N[C@@H]12 [Compound 1, 7-N-[(2-acetylthio)ethyl]mitomycin] ? 5.6

Similarly, CO[C@@]12[C@H](COC(N)=O)C3=C(C(=O)C(C)=C(NCCSC(=O)c4ccccc4)C3=O)N1C[C@@H]1N[C@@H]12 ? 6

Now consider CO[C@@]12[C@H](COC(N)=O)C3=C(C(=O)C(C)=C(NCCCCCCCCSC(C)=O)C3=O)N1C[C@@H]1N[C@@H]12 and answer again. 45

Query CO[C@@]12[C@H](COC(N)=O)C3=C(C(=O)C(C)=C(NCCCCCCCCSC(=O)c4ccc(F)cc4)C3=O)N1C[C@@H]1N[C@@H]12 next 62.5

Param item: CO[C@@]12[C@H](COC(N)=O)C3=C(C(=O)C(C)=C(NCCSC(C)=S)C3=O)N1C[C@@H]1N[C@@H]12 6.6

How about COc1ccc(C(=O)SCCNC2=C(C)C(=O)C3=C(C2=O)[C@@H](COC(N)=O)[C@@]2(OC)[C@H]4N[C@H]4CN32)cc1 ? 6.3

###

- Experimental details: Acute toxicity
- Condition notes: mouse, in vivo, ip; ddY mice, intraperitoneally once, 14 days observation
# maps each entry to its LD50 at 336 h
Write the value in mg/kg as a bare number.

// worked examples, LD50 at 336 h included
>  <Molecule>
CO[C@@]12[C@H](COC(N)=O)C3=C(C(=O)C(C)=C(NCCSC(C)=O)C3=O)N1C[C@H]1[C@@H]2N1C (stereo partly drawn)

>  <LD50 at 336 h, mg/kg>
9.4

$$$$
>  <Molecule>
CCC(=O)SCCNC1=C(C)C(=O)C2=C(C1=O)[C@@H](COC(N)=O)[C@@]1(OC)[C@H]3N[C@H]3CN21

>  <LD50 at 336 h, mg/kg>
4.7

$$$$
>  <Molecule>
CC1=C(NCCSC(=O)c2ccc(F)cc2)C(=O)C2=C(C1=O)N1C[C@H]3[C@H](N3C)[C@]1(O)[C@H]2COC(N)=O (stereo partly drawn)

>  <LD50 at 336 h, mg/kg>
15

$$$$
>  <Molecule>
CC(=O)SCCNC1=C(C)C(=O)C2=C(C1=O)[C@H](COC(N)=O)[C@@]1(O)[C@@H]3[C@H](CN21)N3C (stereo partly drawn)

>  <LD50 at 336 h, mg/kg>
26.3

$$$$

Find the recorded LD50 at 336 h belonging to CO[C@@]12[C@H](COC(N)=O)C3=C(C(=O)C(C)=C(NCCCSC(C)=O)C3=O)N1C[C@@H]1N[C@@H]12 and report it. 11.3

What do we get for CC(=S)SCCNC1=C(C)C(=O)C2=C(C1=O)[C@H](COC(N)=O)[C@@]1(O)[C@@H]3[C@H](CN21)N3C (stereo partly drawn) ? 13.1

###

- Test system: peripheral leucocytes
- Experimental details: Effect on the peripheral leucocytes number
- Assay type: in vivo, mouse (ddY strain)
- Condition notes: minimum dose reducing peripheral leucocytes number to 4000/mm^3; tumour-carrying ddY mice, intraperitoneal, 4 days after administration
So basically: is WBC4000 under 30 mg/kg? Then criterion met. Not under? Then criterion not met.

The following compounds have reported results that may help.
>  <Compound>
CO[C@@]12[C@H](COC(N)=O)C3=C(C(=O)C(C)=C(NCCCCCCSC(C)=S)C3=O)N1C[C@@H]1N[C@@H]12

>  <Qualitative label>
criterion met

$$$$
>  <Compound>
CO[C@@]12[C@H](COC(N)=O)C3=C(C(=O)C(C)=C(NCCCCCSC(C)=O)C3=O)N1C[C@@H]1N[C@@H]12

>  <Qualitative label>
criterion not met

$$$$
>  <Compound>
CO[C@@]12[C@H](COC(N)=O)C3=C(C(=O)C(C)=C(NCCCCCCSC(=O)c4ccccc4)C3=O)N1C[C@@H]1N[C@@H]12

>  <Qualitative label>
criterion not met

$$$$
>  <Compound>
COc1ccc(C(=O)SCCNC2=C(C)C(=O)C3=C(C2=O)[C@H](COC(N)=O)[C@@]2(O)[C@@H]4[C@H](CN32)N4C)cc1 (stereo partly shown)

>  <Qualitative label>
criterion met

$$$$
>  <Compound>
CO[C@@]12[C@H](COC(N)=O)C3=C(C(=O)C(C)=C(NCCCCSC(C)=S)C3=O)N1C[C@@H]1N[C@@H]12

>  <Qualitative label>
criterion not met

$$$$
>  <Compound>
CC1=C(NCCSC(=O)c2ccc([N+](=O)[O-])cc2)C(=O)C2=C(C1=O)N1C[C@H]3[C@H](N3C)[C@]1(O)[C@H]2COC(N)=O (stereo partly shown)

>  <Qualitative label>
criterion met

$$$$
>  <Compound>
CO[C@@]12[C@H](COC(N)=O)C3=C(C(=O)C(C)=C(NCCSC(C)=S)C3=O)N1C[C@H]1[C@@H]2N1C (stereo partly shown)

>  <Qualitative label>
criterion met

$$$$
>  <Compound>
CC(=S)SCCNC1=C(C)C(=O)C2=C(C1=O)[C@H](COC(N)=O)[C@@]1(O)[C@@H]3[C@H](CN21)N3C (stereo partly shown)

>  <Qualitative label>
criterion met

$$$$
>  <Compound>
CO[C@@]12[C@H](COC(N)=O)C3=C(C(=O)C(C)=C(NCCCCCCCCSC(=O)c4ccc(F)cc4)C3=O)N1C[C@@H]1N[C@@H]12

>  <Qualitative label>
criterion met

$$$$
>  <Compound>
CO[C@@]12[C@H](COC(N)=O)C3=C(C(=O)C(C)=C(NCCCCCCSC(C)=O)C3=O)N1C[C@@H]1N[C@@H]12

>  <Qualitative label>
criterion not met

$$$$

Field: below-cutoff. Rule: recorded WBC4000 strictly less than 30 mg/kg. Subject: CO[C@@]12[C@H](COC(N)=O)C3=C(C(=O)C(C)=C(NCCSC(C)=O)C3=O)N1C[C@H]1[C@@H]2N1C (stereo partly shown) criterion met
